The measurements presented in this section are drawn from patent US20200087416A1.

Target: T1, human PCSK9 (PCSK9 antigen, SEQ ID NO. 53) (human, UniProt A8T644 31-152; Q8NBP7 153-692, Biotin-labelled on amines in the MSD-SET and sorting experiments; positions not given.)
T1 construct: Biotin-labelled in MSD-SET; also called PCSK9-WT; PCSK9 protein
Test: flow cytometry, PCSK9 left on CHO-LDLR cells (anti-His-FITC) after premix with 10 nM antibody
measuredProperty: Fluorescence Signal Value
Answer with a bare number; do not write a unit.

stdin: Looking for the measured Fluorescence Signal Value of ADI-10089 (antibody, human IgG2, kappa, V domains shown, IgG) VH: QLQLQESGPGLVKPSETLSLTCTVSGGSIGSSSYYWTWIRQPPGKGLEWIGSINYRGSTYYNPSLKSRVTISVDTSKNQFSLKLSSVTAADTAVYYCARENSGVVPAAGPNWFDPWGQGTLVTVSS VL: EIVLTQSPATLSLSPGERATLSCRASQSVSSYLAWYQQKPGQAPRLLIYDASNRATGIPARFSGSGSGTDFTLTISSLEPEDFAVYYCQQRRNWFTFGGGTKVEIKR , can you help?
stdout: 5640

stdin: Also check Lodelcizumab (antibody, V domains shown) VH: QVQLVQSGAEVKKPGASVKVSCKASGYTFSTMYMSWVRQAPGQGLEWMGRIDPANEHTNYAQKFQGRVTMTRDTSISTAYMELSRLTSDDTAVYYCARSYYYYNMDYWGQGTLVTVSS VL: QIVLTQSPATLSVSPGERATLSCRASQSVSYMHWYQQKPGQAPRLLIYGVFRRATGIPDRFSGSGSGTDFTLTIGRLEPEDFAVYYCLQWSSDPPTFGQGTKLEIK
stdout: 7330

stdin: Also check ADI-10085 (antibody, human IgG2, kappa, V domains shown, IgG) VH: QLQLQESGPGLVKPSETLSLTCTVSGGSIVSSSYYWAWIRQPPGKGLEWIGSINYKGSTYYNPSLKSRVTISVDTSKNQFSLKLSSVTAADTAVYYCARENSGVVPAAGPNWFGPWGQGTLVTVSS VL: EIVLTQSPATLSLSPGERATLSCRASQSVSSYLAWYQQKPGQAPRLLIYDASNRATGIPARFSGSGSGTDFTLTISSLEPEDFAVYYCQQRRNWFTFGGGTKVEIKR
stdout: 5680
